Each record here notes measured AVG A450 nm.
# experimental.system: T1, human c-Met ECD-Fc-Flis (human)
# T1 construct: c-Met ECD fused to Fc with flag- and His-tag at the C-terminus; also called human c-Met extracellular domain (ECD)-Fc-Flis fusion; human c-Met-Flis-Fc ECD
# T1 sequence (chain, as listed by the source): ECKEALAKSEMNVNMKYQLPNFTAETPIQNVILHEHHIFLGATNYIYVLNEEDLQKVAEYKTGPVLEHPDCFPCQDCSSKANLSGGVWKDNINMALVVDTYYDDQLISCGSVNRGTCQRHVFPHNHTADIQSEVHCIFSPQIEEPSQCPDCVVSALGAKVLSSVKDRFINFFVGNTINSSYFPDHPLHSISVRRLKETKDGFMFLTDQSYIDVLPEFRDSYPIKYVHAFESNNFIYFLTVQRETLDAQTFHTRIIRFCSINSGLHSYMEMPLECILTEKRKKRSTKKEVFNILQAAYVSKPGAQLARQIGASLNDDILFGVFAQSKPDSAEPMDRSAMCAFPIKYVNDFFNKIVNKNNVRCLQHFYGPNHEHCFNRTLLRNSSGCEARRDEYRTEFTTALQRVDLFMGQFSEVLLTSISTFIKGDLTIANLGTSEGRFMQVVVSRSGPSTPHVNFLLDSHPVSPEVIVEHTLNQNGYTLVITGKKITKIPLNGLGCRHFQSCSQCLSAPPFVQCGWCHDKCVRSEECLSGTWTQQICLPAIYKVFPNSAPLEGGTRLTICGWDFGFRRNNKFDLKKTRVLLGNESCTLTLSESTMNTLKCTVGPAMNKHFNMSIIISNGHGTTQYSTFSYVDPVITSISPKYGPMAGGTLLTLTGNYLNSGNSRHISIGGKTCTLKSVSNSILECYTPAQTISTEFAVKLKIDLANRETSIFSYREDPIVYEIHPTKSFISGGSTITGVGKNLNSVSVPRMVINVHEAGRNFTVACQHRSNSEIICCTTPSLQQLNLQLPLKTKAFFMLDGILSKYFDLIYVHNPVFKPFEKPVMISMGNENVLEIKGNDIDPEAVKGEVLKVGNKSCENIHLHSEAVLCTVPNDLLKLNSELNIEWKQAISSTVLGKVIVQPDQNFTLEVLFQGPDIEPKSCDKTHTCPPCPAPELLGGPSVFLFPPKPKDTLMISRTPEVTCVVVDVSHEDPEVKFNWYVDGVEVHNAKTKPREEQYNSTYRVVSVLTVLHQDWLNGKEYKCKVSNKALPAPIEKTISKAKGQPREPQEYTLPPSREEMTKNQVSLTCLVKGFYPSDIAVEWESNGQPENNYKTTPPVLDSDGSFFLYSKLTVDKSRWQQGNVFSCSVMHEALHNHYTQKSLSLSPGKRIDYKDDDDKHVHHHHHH
# protocol.text: HGF-blocking ELISA: HGF signal on coated c-Met ECD-Fc-Flis; Ab 122.07 ng/mL
// note: answer is a bare numeric in A450 nm

# binder, AVG A450 nm [A450 nm]
measured = [
    ("C8-co-16 (antibody, human IgG2, kappa, V domains shown, Named IgG4 kappa; also called C8-co-16 IgG4) VH: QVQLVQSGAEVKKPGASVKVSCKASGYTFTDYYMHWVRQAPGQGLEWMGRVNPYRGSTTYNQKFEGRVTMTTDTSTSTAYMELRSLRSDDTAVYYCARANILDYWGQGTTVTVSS VL: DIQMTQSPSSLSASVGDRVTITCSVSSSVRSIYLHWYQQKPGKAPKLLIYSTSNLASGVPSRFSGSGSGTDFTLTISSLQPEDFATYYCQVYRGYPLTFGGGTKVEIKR", 1.3),
]

Q: Data request, read-out AVG A450 nm, for C8-H241 (antibody, human IgG2, kappa, V domains shown, Named IgG4 kappa; also called Mab C8-H241) VH: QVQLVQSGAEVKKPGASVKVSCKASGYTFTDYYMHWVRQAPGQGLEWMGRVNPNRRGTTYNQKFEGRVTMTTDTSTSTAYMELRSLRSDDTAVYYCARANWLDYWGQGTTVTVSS VL: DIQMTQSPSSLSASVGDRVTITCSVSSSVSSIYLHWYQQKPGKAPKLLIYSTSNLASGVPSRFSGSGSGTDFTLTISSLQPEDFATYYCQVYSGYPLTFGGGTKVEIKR
Result: 1.77

Q: # input binder: D11-C27G3 (antibody, human IgG2, kappa, V domains shown, Human engineered IgG2 kappa c-Met antibody; also called D11-27G3; D11-C27G3 IgG2) VH: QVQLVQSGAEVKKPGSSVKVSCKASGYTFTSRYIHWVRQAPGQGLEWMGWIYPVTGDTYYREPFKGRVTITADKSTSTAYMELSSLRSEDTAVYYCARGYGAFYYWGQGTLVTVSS VL: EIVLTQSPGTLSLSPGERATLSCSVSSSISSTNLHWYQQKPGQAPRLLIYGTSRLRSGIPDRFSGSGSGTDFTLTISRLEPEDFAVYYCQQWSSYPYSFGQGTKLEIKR ; wanted: its AVG A450 nm
Result: 1.6

Q: Would you kindly share the measured AVG A450 nm for D11-S17Y (antibody, human IgG2, kappa, V domains shown, Human engineered IgG2 kappa c-Met antibody; also called D11-S17Y IgG2) VH: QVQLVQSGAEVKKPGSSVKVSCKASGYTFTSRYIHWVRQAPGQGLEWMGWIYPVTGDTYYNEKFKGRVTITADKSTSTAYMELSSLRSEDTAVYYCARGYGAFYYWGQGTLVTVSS VL: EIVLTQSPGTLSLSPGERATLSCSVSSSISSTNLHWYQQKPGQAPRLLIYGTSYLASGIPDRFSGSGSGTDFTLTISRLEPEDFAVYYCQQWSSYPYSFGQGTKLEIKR ?
Result: 1.69
